For each entry below, report its PBM binding z-score value.
System: PXR:RXRa (NR concentration 270 nM, RXRa partner concentration 90 nM)
Assay: PBM binding z-score (relative to random genomic background probes); higher = stronger binding; sequences stand for … in GC…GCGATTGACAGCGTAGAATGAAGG

Measured PBM binding z-score of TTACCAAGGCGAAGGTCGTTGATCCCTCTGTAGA : 1.16

Please fill in: PBM binding z-score reported for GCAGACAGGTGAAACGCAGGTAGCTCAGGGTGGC = -0.573

So for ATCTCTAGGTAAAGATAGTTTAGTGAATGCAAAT , the logged PBM binding z-score turned out to be 0.277

The sequence identified as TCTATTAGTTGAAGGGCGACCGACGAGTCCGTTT registered its PBM binding z-score at 0.655

The recorded PBM binding z-score for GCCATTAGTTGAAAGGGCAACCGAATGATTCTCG is 0.706

The reported PBM binding z-score of the sequence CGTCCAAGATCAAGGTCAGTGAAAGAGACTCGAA was 1.82
